Tgt: human metabotropic glutamate receptor mGluR3 (Homo sapiens (Human))
Sequence (Q14832 23-879): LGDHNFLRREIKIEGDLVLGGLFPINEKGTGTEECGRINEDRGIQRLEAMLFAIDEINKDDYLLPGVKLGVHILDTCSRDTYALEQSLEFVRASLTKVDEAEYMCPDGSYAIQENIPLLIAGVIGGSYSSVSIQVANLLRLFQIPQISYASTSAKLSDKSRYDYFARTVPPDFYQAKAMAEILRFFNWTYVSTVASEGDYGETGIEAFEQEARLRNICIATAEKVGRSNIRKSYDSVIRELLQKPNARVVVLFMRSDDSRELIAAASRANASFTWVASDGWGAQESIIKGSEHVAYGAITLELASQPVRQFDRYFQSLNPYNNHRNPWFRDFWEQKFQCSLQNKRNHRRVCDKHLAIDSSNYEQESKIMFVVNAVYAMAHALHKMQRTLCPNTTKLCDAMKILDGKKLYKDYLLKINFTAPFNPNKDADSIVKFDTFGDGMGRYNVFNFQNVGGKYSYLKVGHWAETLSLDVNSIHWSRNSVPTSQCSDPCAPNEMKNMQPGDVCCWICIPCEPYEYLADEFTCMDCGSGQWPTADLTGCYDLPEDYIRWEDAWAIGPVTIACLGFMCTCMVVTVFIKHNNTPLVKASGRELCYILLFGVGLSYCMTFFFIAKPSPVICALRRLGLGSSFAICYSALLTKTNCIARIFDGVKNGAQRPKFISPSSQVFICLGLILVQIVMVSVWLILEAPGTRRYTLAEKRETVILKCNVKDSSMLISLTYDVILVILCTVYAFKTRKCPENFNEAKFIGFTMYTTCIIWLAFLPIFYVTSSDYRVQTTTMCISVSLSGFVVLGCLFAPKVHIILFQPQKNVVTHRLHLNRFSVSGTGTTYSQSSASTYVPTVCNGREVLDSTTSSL
Method: [35S]GTPγS binding test, mGluR3
Conditions: inhibition of glutamate (1 μM)-stimulated [35S]GTPγS specific binding, CHO cell membranes
Provide the recorded pIC50 for the entries that follow.
Just so you know, pIC50 here is -log10 of the concentration in molar units; reply with that number alone.

In: Query: pIC50; subject: "N[C@]1(C(=O)O)[C@H]2[C@@H](C[C@H]1OCc1ccc(Cl)nc1)[C@]2(F)C(=O)O"
Out: 7.30

In: Look up pIC50: "N[C@]1(C(=O)O)[C@H]2[C@@H](C[C@H]1OCc1ccc(F)cc1)[C@]2(F)C(=O)O"
Out: 7.44

In: Look up pIC50: "N[C@]1(C(=O)O)[C@H]2[C@@H](C[C@H]1OCc1ccc(C(F)(F)F)cc1)[C@]2(F)C(=O)O"
Out: 6.55

----------
Method: Stability test in solution (pH 1.2 and pH 6.5)
Format: physicochemical
Conditions: hydrochloric acid solution pH 1.2, 37° C., 1 hour
Can you tell me Compound's percent residue (%) pH 1.2 for the items I'm about to list?
Just the number please, in %, no unit attached.

In: Give its Compound's percent residue (%) pH 1.2 value. Item: CC(OC(=O)O[C@H]1C[C@@H](C)CC[C@@H]1C(C)C)OC(=O)[C@@]1(N)[C@H]2[C@@H](C[C@H]1OCc1ccc(F)cc1)[C@]2(F)C(=O)O (some centres unmarked)
Out: 101

In: Please report the recorded Compound's percent residue (%) pH 1.2 for "CC(C)[C@@H]1CC[C@@H](C)C[C@H]1OC(=O)O[C@H](C)OC(=O)[C@@]1(N)[C@H]2[C@@H](C[C@H]1OCc1ccc(F)cc1)[C@]2(F)C(=O)O" .
Out: 109

In: Query (molecule): "C[C@@H](OC(=O)C12CC3CC(CC(C3)C1)C2)OC(=O)[C@@]1(N)[C@H]2[C@@H](C[C@H]1OCc1ccc(Cl)cn1)[C@]2(F)C(=O)O" ; field requested: Compound's percent residue (%) pH 1.2
Out: 97

In: Quick one: Compound's percent residue (%) pH 1.2 of "C[C@@H](OC(=O)C12CC3CC(CC(C3)C1)C2)OC(=O)[C@@]1(N)[C@H]2[C@@H](C[C@H]1OC1CCCC1)[C@]2(F)C(=O)O" ?
Out: 100

In: Recorded Compound's percent residue (%) pH 1.2 for CC(OC(=O)O[C@@H]1C[C@@H]2CC[C@@]1(C)C2(C)C)OC(=O)[C@@]1(N)[C@H]2[C@@H](C[C@H]1OCc1ccc(F)cc1)[C@]2(F)C(=O)O (single isomer, unassigned) , please?
Out: 104

----------
Method: Stability test in solution (pH 1.2 and pH 6.5)
Type: physicochemical
Conditions: 20 mM phosphate buffer pH 6.5, 37° C., 1 hour
Counter-ions that a name gives are not always drawn.
Measured attribute: Compound's percent residue (%) pH 6.5
The answer consists of two parts: a number and, after it, its unit.

In: Quick one: Compound's percent residue (%) pH 6.5 of "N[C@]1(C(=O)OCOC(=O)c2ccccc2)[C@H]2[C@@H](C[C@H]1OCc1ccc(F)cc1)[C@]2(F)C(=O)O" ?
Out: 99%

In: What does the record list as Compound's percent residue (%) pH 6.5 for "CC(C)[C@@H]1CC[C@@H](C)C[C@H]1OC(=O)O[C@@H](C)OC(=O)[C@@]1(N)[C@H]2[C@@H](C[C@H]1OCc1ccc(F)c(F)c1)[C@]2(F)C(=O)O" ?
Out: 116%

In: Dear colleague, I am looking for the recorded Compound's percent residue (%) pH 6.5 of the following compound: CCCO[C@@H]1C[C@@H]2[C@H]([C@]1(N)C(=O)OC(C)OC(=O)O[C@H]1C[C@@H](C)CC[C@@H]1C(C)C)[C@@]2(F)C(=O)O (stereo partly drawn)
Out: 104%

In: Return reported Compound's percent residue (%) pH 6.5; argument: CC(OC(=O)O[C@H]1C(C)(C)[C@H]2CC[C@]1(C)C2)OC(=O)[C@@]1(N)[C@H]2[C@@H](C[C@H]1OCc1ccc(F)cc1)[C@]2(F)C(=O)O (stereo partly drawn)
Out: 98%

In: Item CC(OC(=O)OC1CCCCC1)OC(=O)[C@@]1(N)[C@H]2[C@@H](C[C@H]1OCc1ccc(F)cc1)[C@]2(F)C(=O)O (stereo partly drawn) has what recorded Compound's percent residue (%) pH 6.5?
Out: 98%

In: Which measured Compound's percent residue (%) pH 6.5 value corresponds to CCCO[C@@H]1C[C@@H]2[C@H]([C@]1(N)C(=O)OC(C)OC(=O)O[C@H]1C[C@H]3CC[C@]1(C)C3(C)C)[C@@]2(F)C(=O)O (stereo partly drawn) ?
Out: 100%

In: Can you share its Compound's percent residue (%) pH 6.5? I mean this compound: "CC(C)[C@@H]1CC[C@@H](C)C[C@H]1OC(=O)O[C@H](C)OC(=O)[C@@]1(N)[C@H]2[C@@H](C[C@H]1OCc1cccc(Cl)n1)[C@]2(F)C(=O)O"
Out: 97%

In: I am curious: what Compound's percent residue (%) pH 6.5 value has been reported for "C[C@@H](OC(=O)C12CC3CC(CC(C3)C1)C2)OC(=O)[C@@]1(N)[C@H]2[C@@H](C[C@H]1OCc1ccc(Cl)cn1)[C@]2(F)C(=O)O" ?
Out: 94%

In: Can you look up the measured Compound's percent residue (%) pH 6.5 of CC(OC(=O)O[C@H]1C[C@H]2CC[C@]1(C)C2(C)C)OC(=O)[C@@]1(N)[C@H]2[C@@H](C[C@H]1OCc1ccc(F)cc1)[C@]2(F)C(=O)O (stereo partly drawn) for me?
Out: 99%

In: Which measured Compound's percent residue (%) pH 6.5 value corresponds to CCCO[C@@H]1C[C@@H]2[C@H]([C@]1(N)C(=O)OC(C)OC(=O)O[C@@H]1C[C@@H]3CC[C@@]1(C)C3(C)C)[C@@]2(F)C(=O)O (single isomer, unassigned) ?
Out: 103%

In: Quick check: Compound's percent residue (%) pH 6.5 of "C[C@H](OC(=O)C12CC3CC(CC(C3)C1)C2)OC(=O)[C@@]1(N)[C@H]2[C@@H](C[C@H]1OCc1ccc(F)c(F)c1)[C@]2(F)C(=O)O" ?
Out: 107%

In: Looking for the measured Compound's percent residue (%) pH 6.5 of CCCO[C@@H]1C[C@@H]2[C@H]([C@]1(N)C(=O)OC(C)OC(=O)O[C@@H]1C[C@@H]3CC[C@@]1(C)C3(C)C)[C@@]2(F)C(=O)O (stereo partly drawn) , can you help?
Out: 112%

In: Quick one: Compound's percent residue (%) pH 6.5 of "CC(C)(C)C(=O)OCOC(=O)[C@@]1(N)[C@H]2[C@@H](C[C@H]1OCc1ccc(F)cc1)[C@]2(F)C(=O)O" ?
Out: 97%

In: Consider the compound "N[C@]1(C(=O)OCOC(=O)C23CC4CC(CC(C4)C2)C3)[C@H]2[C@@H](C[C@H]1OCc1ccc(F)c(F)c1)[C@]2(F)C(=O)O" and give its measured Compound's percent residue (%) pH 6.5.
Out: 102%

In: // lookup Compound's percent residue (%) pH 6.5 for CC(OC(=O)O[C@@H]1C[C@@H]2CC[C@@]1(C)C2(C)C)OC(=O)[C@@]1(N)[C@H]2[C@@H](C[C@H]1OCc1ccc(F)cc1)[C@]2(F)C(=O)O (stereo partly drawn)
Out: 100%

In: # Compound's percent residue (%) pH 6.5 lookup, item "N[C@]1(C(=O)OCOC(=O)C23CC4CC(CC(C4)C2)C3)[C@H]2[C@@H](C[C@H]1OCc1ccc(F)cc1)[C@]2(F)C(=O)O"
Out: 106%

In: Param item = "C[C@@H](OC(=O)C12CC3CC(CC(C3)C1)C2)OC(=O)[C@@]1(N)[C@H]2[C@@H](C[C@H]1OC1CCCC1)[C@]2(F)C(=O)O" ; retrieve measured Compound's percent residue (%) pH 6.5.
Out: 102%

In: Recorded Compound's percent residue (%) pH 6.5 for "CC(C)[C@@H]1CC[C@@H](C)C[C@H]1OC(=O)O[C@H](C)OC(=O)[C@@]1(N)[C@H]2[C@@H](C[C@H]1OCc1ccc(F)cc1)[C@]2(F)C(=O)O" , please?
Out: 103%

In: Request the reported Compound's percent residue (%) pH 6.5 associated with "CCCO[C@@H]1C[C@@H]2[C@H]([C@]1(N)C(=O)O[C@H](C)OC(=O)O[C@@H]1C[C@H](C)CC[C@H]1C(C)C)[C@@]2(F)C(=O)O"
Out: 97%

In: Which Compound's percent residue (%) pH 6.5 reading was recorded for the compound "C[C@@H](OC(=O)C12CC3CC(CC(C3)C1)C2)OC(=O)[C@@]1(N)[C@H]2[C@@H](C[C@H]1OCc1ccc(Cl)nc1)[C@]2(F)C(=O)O" ?
Out: 101%

In: Give its Compound's percent residue (%) pH 6.5 value. Item: CC(C)[C@H](N)C(=O)OCOC(=O)[C@@]1(N)[C@H]2[C@@H](C[C@H]1OCc1ccc(F)cc1)[C@]2(F)C(=O)O [Example 6, dihydrochloride]
Out: 11%
